# Tested on: SH-SY5Y human neuroblastoma cell line
# protocol.summary: Cell viability dose-response screening (MTT)
# Type: cell-based
# cond: 24 h
metric: highest nontoxic concentration

Please review the following examples before continuing.
molecule: CCN(C)C(=O)Oc1cccc(NC(=O)/C=C/C=C/c2ccc(O)c(O)c2)c1
assay.system: SH-SY5Y human neuroblastoma cell line
highest nontoxic concentration: 1 µM
--
molecule: CCN(C)C(=O)Oc1cccc(CNC(=O)C2(C)CCc3c(C)c(O)c(C)c(C)c3O2)c1 (stereo not drawn)
assay.system: SH-SY5Y human neuroblastoma cell line
highest nontoxic concentration: 1 µM

Query: Item under review: CCN(C)C(=O)Oc1cccc(NC(=O)/C=C/c2ccc3c(c2)OCO3)c1 . Reported highest nontoxic concentration?
Response: 5 µM

This collection of values is drawn from paper PMC12383012.
